# assaySystem: Melanocortin receptor 3 (Homo sapiens)
# Sequence (P41968 whole entry): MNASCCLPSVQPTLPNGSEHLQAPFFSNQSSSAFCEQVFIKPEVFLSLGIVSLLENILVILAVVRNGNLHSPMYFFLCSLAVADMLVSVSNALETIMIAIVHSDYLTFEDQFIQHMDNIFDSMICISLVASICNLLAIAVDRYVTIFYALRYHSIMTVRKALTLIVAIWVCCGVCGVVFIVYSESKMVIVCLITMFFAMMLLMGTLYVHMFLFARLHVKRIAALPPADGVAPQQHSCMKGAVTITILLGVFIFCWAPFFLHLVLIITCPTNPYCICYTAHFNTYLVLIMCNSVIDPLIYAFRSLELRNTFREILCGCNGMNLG
# experimentDescription: Agonist activity at human MC3R stably overexpressing in HEK293 cells assessed as intracellular acumulation of cAMP level incubated for 30 mins measured by microbeta 2 microplate counter analysis
# Format: functional, cell-based
# experimentalContext: read-out: EC50
Listed compounds paired with reported EC50

>>> experimentalresult("CC(=O)N[C@@H](Cc1c[nH]cn1)C(=O)N[C@H](Cc1ccccc1)C(=O)N[C@@H](CCCNC(=N)N)C(=O)N[C@H]1Cn2nncc2CNC1=O")
"> 1000 nM"
>>> experimentalresult("CC(=O)N[C@@H](Cc1c[nH]cn1)C(=O)N[C@H](Cc1ccccc1)C(=O)N[C@@H](CCCNC(=N)N)C(=O)N[C@H]1Cc2c([nH]c3ccccc23)CNC1=O")
"166 nM"

Given the compound CCCC[C@H](NC(=O)[C@@H](Cc1ccccc1)NC(=O)[C@H](Cc1c[nH]cn1)NC(C)=O)C(=O)N[C@H]1Cc2c([nH]c3ccccc23)CNC1=O and test system Melanocortin receptor 3 (Homo sapiens), the measured EC50 is > 1000 nM

====

# EC50 values compiled below
# assaySystem: Melanocyte-stimulating hormone receptor (Homo sapiens)
# experimentDescription: Agonist activity at human MC1R stably overexpressing in HEK293 cells assessed as intracellular acumulation of cAMP level incubated for 30 mins measured by microbeta 2 microplate counter analysis
# Assay type: functional, cell-based
# experimentalContext: read-out: EC50
# Sequence (Q01726 whole entry): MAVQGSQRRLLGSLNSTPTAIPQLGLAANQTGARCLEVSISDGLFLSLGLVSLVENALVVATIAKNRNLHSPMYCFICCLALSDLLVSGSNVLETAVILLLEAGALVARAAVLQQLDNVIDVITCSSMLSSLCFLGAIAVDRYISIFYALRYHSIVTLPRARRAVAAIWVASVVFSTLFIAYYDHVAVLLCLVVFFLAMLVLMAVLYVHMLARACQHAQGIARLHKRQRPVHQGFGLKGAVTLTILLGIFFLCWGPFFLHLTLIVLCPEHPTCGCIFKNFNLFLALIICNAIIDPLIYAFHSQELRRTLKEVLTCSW
// return numeric value only (unit: nM, not printed)

Examples with answers:
>>> experimentalresult("CC(=O)N[C@@H](Cc1c[nH]cn1)C(=O)N[C@H](Cc1ccccc1)C(=O)N[C@@H](CCCNC(=N)N)C(=O)N[C@H]1Cn2nncc2CNC1=O")
136
>>> experimentalresult("CC(=O)N[C@@H](Cc1c[nH]cn1)C(=O)N[C@H](Cc1ccc(C(F)(F)F)cc1)C(=O)N[C@@H](CCCNC(=N)N)C(=O)N[C@H]1Cc2c([nH]c3ccccc23)CNC1=O")
37
>>> experimentalresult("CC(=O)N[C@@H](Cc1c[nH]cn1)C(=O)N[C@H](Cc1ccccc1)C(=O)N[C@@H](CCCNC(=N)N)C(=O)N[C@H]1Cc2c([nH]c3ccccc23)CNC1=O")
11.2

Next, consider the following molecule.
Entry CCCC[C@H](NC(C)=N)C(=O)N[C@@H]1NCCCC[C@@H](C(N)=O)NC(=O)[C@H](Cc2c[nH]c3ccccc23)NC(=O)[C@H](CCCNC(=N)N)NC(=O)[C@H](Cc2ccccc2)NC(=O)[C@H](Cc2cnc[nH]2)NC1=O : EC50 on Melanocyte-stimulating hormone receptor (Homo sapiens) = 1

====

# assaySystem: Melanocyte-stimulating hormone receptor (Homo sapiens)
# experimentDescription: Displacement of [I125] NDP-alpha-MSH from human MC1R stably overexpressing in HEK293 cells in presence of [I125] labeled NDP-alpha-MSH treated at 10 uM for 40 mins measured by microbeta 2 microplate counter analysis
# Type: cell-based
quantityMeasured: IC50

>>> experimentalresult("CC(=O)N[C@@H](Cc1c[nH]cn1)C(=O)N[C@H](Cc1ccccc1)C(=O)N[C@@H](CCCNC(=N)N)C(=O)N[C@H]1Cc2ccccc2CNC1=O")
"Not Active"
>>> experimentalresult("CCCC[C@H](NC(=O)[C@@H](Cc1ccccc1)NC(=O)[C@H](Cc1c[nH]cn1)NC(C)=O)C(=O)N[C@H]1Cc2ccccc2CNC1=O")
"Not Active"
>>> experimentalresult("CCCC[C@H](NC(=O)[C@@H](Cc1ccccc1)NC(=O)[C@H](Cc1c[nH]cn1)NC(C)=O)C(=O)N[C@H]1Cn2nncc2CNC1=O")
"Not Active"
>>> experimentalresult("CCCC[C@H](NC(=O)[C@@H](Cc1ccccc1)NC(=O)[C@H](Cc1c[nH]cn1)NC(C)=O)C(=O)N[C@H]1Cc2c([nH]c3ccccc23)CNC1=O")
"Not Active"

====

# assaySystem: UniProt:P32245
# experimentDescription: Displacement of [I125] NDP-alpha-MSH from human MC4R stably overexpressing in HEK293 cells in presence of [I125] labeled NDP-alpha-MSH treated for 40 mins measured by microbeta 2 microplate counter analysis
# Assay type: cell-based
quantityMeasured: pIC50
# pIC50: negative log10 of molar concentration; output just the value

>>> experimentalresult("CC(=O)N[C@@H](Cc1c[nH]cn1)C(=O)N[C@H](Cc1ccc(C(F)(F)F)cc1)C(=O)N[C@@H](CCCNC(=N)N)C(=O)N[C@H]1Cc2c([nH]c3ccccc23)CNC1=O")
8.60

// next entry
Record for CC(=O)N[C@@H](Cc1c[nH]cn1)C(=O)N[C@H](Cc1ccccc1)C(=O)N[C@@H](CCCNC(=N)N)C(=O)N[C@H]1Cc2c([nH]c3ccccc23)CNC1=O under target or system UniProt:P32245: pIC50 reported as 6.78

====

Quick reference: Emax of the listed items.
# assaySystem: Melanocyte-stimulating hormone receptor (Homo sapiens, UniProt Q01726)
# experimentDescription: Agonist activity at human MC1R stably overexpressing in HEK293 cells assessed as intracellular acumulation of cAMP level incubated at 10 uM for 30 mins measured by microbeta 2 microplate counter analysis relative to MT-II
# Format: functional, cell-based
# experimentalContext: filed as agonist
# Sequence (Q01726 whole entry, looked up): as the sequence (Q01726 whole entry) above

Answered examples (3):
>>> experimentalresult("CC(=O)N[C@@H](Cc1c[nH]cn1)C(=O)N[C@H](Cc1ccc(C(F)(F)F)cc1)C(=O)N[C@@H](CCCNC(=N)N)C(=O)N[C@H]1Cc2c([nH]c3ccccc23)CNC1=O")
"100%"
>>> experimentalresult("CC(=O)N[C@@H](Cc1c[nH]cn1)C(=O)N[C@H](Cc1ccccc1)C(=O)N[C@@H](CCCNC(=N)N)C(=O)N[C@H]1Cc2c([nH]c3ccccc23)CNC1=O")
"100%"
>>> experimentalresult("CC(=O)N[C@@H](Cc1c[nH]cn1)C(=O)N[C@H](Cc1ccccc1)C(=O)N[C@@H](CCCNC(=N)N)C(=O)N[C@H]1Cn2nncc2CNC1=O")
"96%"

Let's switch to this compound now.
The compound listed as CC(=O)N[C@@H](Cc1cnc[nH]1)C(=O)N[C@H](Cc1ccccc1)C(=O)N[C@@H](CCCNC(=N)N)C(=O)N[C@@H](Cc1c[nH]c2ccccc12)C(N)=O has a reported Emax of 100%

====

# assaySystem: Melanocyte-stimulating hormone receptor (Homo sapiens, UniProt Q01726)
# experimentDescription: Displacement of [I125] NDP-alpha-MSH from human MC1R stably overexpressing in HEK293 cells in presence of [I125] labeled NDP-alpha-MSH treated for 40 mins measured by microbeta 2 microplate counter analysis
# Type: cell-based
The entries below are paired with their reported pIC50.
Just so you know, pIC50 here is -log10 of the concentration in molar units; reply with that number alone.

>>> experimentalresult("CC(=O)N[C@@H](Cc1c[nH]cn1)C(=O)N[C@H](Cc1ccccc1)C(=O)N[C@@H](CCCNC(=N)N)C(=O)N[C@H]1Cn2nncc2CNC1=O")
8.02
>>> experimentalresult("CCCC[C@H](NC(C)=N)C(=O)N[C@@H]1NCCCC[C@@H](C(N)=O)NC(=O)[C@H](Cc2c[nH]c3ccccc23)NC(=O)[C@H](CCCNC(=N)N)NC(=O)[C@H](Cc2ccccc2)NC(=O)[C@H](Cc2cnc[nH]2)NC1=O")
9.00
>>> experimentalresult("CC(=O)N[C@@H](Cc1c[nH]cn1)C(=O)N[C@H](Cc1ccccc1)C(=O)N[C@@H](CCCNC(=N)N)C(=O)N[C@H]1Cc2c([nH]c3ccccc23)CNC1=O")
7.47

From here, focus on the item given below.
// pIC50 value for CC(=O)N[C@@H](Cc1c[nH]cn1)C(=O)N[C@H](Cc1ccc(C(F)(F)F)cc1)C(=O)N[C@@H](CCCNC(=N)N)C(=O)N[C@H]1Cc2c([nH]c3ccccc23)CNC1=O : 7.09

====

Overview of recorded EC50 for various molecules
# assaySystem: Melanocortin receptor 4 (Homo sapiens, UniProt P32245)
# Sequence (P32245 whole entry): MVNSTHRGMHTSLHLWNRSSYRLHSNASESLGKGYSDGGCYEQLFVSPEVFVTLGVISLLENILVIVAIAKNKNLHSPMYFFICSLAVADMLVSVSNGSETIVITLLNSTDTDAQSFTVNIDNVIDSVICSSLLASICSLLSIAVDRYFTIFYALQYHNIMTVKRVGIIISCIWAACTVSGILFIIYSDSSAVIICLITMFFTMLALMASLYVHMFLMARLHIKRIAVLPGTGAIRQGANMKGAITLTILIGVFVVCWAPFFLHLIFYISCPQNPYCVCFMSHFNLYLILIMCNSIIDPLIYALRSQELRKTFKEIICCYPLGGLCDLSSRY
# experimentDescription: Agonist activity at human MC4R stably overexpressing in HEK293 cells assessed as intracellular acumulation of cAMP level incubated for 30 mins measured by microbeta 2 microplate counter analysis
# Assay type: functional, cell-based
# experimentalContext: read-out: EC50
Report as a plain number; the unit nM is understood.

>>> experimentalresult("CC(=O)N[C@@H](Cc1c[nH]cn1)C(=O)N[C@H](Cc1ccc(C(F)(F)F)cc1)C(=O)N[C@@H](CCCNC(=N)N)C(=O)N[C@H]1Cc2c([nH]c3ccccc23)CNC1=O")
4.1
>>> experimentalresult("CCCC[C@H](NC(C)=N)C(=O)N[C@@H]1NCCCC[C@@H](C(N)=O)NC(=O)[C@H](Cc2c[nH]c3ccccc23)NC(=O)[C@H](CCCNC(=N)N)NC(=O)[C@H](Cc2ccccc2)NC(=O)[C@H](Cc2cnc[nH]2)NC1=O")
2

Turning now to a further molecule:
What the record says about CC(=O)N[C@@H](Cc1c[nH]cn1)C(=O)N[C@H](Cc1ccccc1)C(=O)N[C@@H](CCCNC(=N)N)C(=O)N[C@H]1Cc2c([nH]c3ccccc23)CNC1=O : EC50 is 171
